one-hybrid fitness for binding NBS DNA: recorded values
B1: Caulobacter ParB omega fusion; a variant is named by its letters at X, in order, B8GW30 (parent)
chain: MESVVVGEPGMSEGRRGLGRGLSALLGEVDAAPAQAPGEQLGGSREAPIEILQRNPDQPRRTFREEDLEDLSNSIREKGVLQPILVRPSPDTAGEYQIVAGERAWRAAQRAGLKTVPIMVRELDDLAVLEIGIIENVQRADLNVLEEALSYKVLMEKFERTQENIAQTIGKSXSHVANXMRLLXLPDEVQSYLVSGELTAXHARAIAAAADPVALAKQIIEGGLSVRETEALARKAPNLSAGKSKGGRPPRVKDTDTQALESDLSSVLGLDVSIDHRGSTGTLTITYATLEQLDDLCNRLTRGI

variants of: B1; assay: one-hybrid fitness for binding NBS DNA (the Noc-binding site; scaled: cognate 1, non-cognate 0); higher = stronger binding; settings: with NBS DNA site
Whole data set: some 81,000 sequences, median “one-hybrid fitness for binding NBS DNA” near -0.1, cut for the highest 2% near 0.36. The entries come from a sample that favours the highest values as a whole.

Completed entries (count: 8):
HCDP :: ≤ 0.2
PASE :: ≤ 0.2
QSTD :: ≤ 0.2
VPVE :: ≤ 0.2
YTVE :: ≤ 0.2
DMHW :: ≤ 0.2
QIKG :: ≤ 0.2
QHTR :: 0.527

Look up one-hybrid fitness for binding NBS DNA of QTKG and report it.
0.503

Look up one-hybrid fitness for binding NBS DNA of LRKN and report it.
≤ 0.2

Look up one-hybrid fitness for binding NBS DNA of QSTR and report it.
0.531
